Hey, just so you know, these numbers are from ChEMBL document CHEMBL4602696.

Biological target: Proteasome subunit beta type-9 (Homo sapiens, UniProt P28065)
Sequence (P28065 whole entry): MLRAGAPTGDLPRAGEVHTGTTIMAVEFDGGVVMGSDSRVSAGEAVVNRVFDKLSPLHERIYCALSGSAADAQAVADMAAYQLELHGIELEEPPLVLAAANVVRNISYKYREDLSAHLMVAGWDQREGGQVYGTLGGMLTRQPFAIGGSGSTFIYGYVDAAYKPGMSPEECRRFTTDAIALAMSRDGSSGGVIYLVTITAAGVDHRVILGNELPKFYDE
Assay: Inhibition of LMP2 in human 20S immunoproteasome using Ac-PAL-AMC as substrate after 1 hr by fluorescence based microplate reader analysis
quantity-kind: log10 of IC50 (log10 of the value in µM)
Short version: log10 scale, IC50, µM.

CC(=O)NCC(=O)N1CC(F)(F)C[C@H]1C(=O)N[C@@H](Cc1ccccc1)C(=O)N[C@@H](CC(C)C)C(=O)[C@@]1(C)CO1 = -1.14

Now take the following molecule into account.
Give reported log10 of IC50 for "CC(=O)NCC(=O)N1CCC[C@H]1C(=O)N[C@@H](Cc1ccc(-c2ccccc2)cc1)C(=O)N[C@@H](CC(C)C)C(=O)[C@@]1(C)CO1" (Proteasome subunit beta type-9 (Homo sapiens, UniProt P28065))
-1.66

====

In this section we review reported IC50 values for a set of molecules.
target: Proteasome subunit beta type-9 (Homo sapiens); experiment: Inhibition of LMP2 in human 20S immunoproteasome using Ac-PAL-AMC as substrate after 1 hr by fluorescence based microplate reader analysis
Respond with the bare value in nM.

Cc1ncc(C(=O)NCC(=O)N2CCC[C@H]2C(=O)N[C@@H](Cc2ccc3ccccc3c2)C(=O)N[C@@H](CC(C)C)C(=O)[C@@]2(C)CO2)s1 = 183
CC(C)C[C@H](NC(=O)[C@H](Cc1ccccc1)NC(=O)[C@@H]1CCCN1C(=O)CNC(=O)c1cccc(O)n1)C(=O)[C@@]1(C)CO1 = 143
CC(=O)NCC(=O)N1CCC[C@H]1C(=O)N[C@@H](Cc1ccc(NC(=O)c2cnccn2)cc1)C(=O)N[C@@H](CC(C)C)C(=O)[C@@]1(C)CO1 = 33.2

Identify measured IC50 corresponding to "CC(=O)NCC(=O)N1CCC[C@H]1C(=O)N[C@@H](Cc1ccccc1)C(=O)N[C@@H](CC1CCCCC1)C(=O)[C@@]1(C)CO1"
201

====

Below: a set of entries, each annotated with reported pIC50.
molecular target: Proteasome subunit beta type-9 (Homo sapiens); test: Inhibition of LMP2 in human 20S immunoproteasome using Ac-PAL-AMC as substrate after 1 hr by fluorescence based microplate reader analysis
Convention used: pIC50 is expressed as -log10 of the molar concentration.

CC(=O)NCC(=O)N1CCCC[C@H]1C(=O)N[C@@H](Cc1ccccc1)C(=O)N[C@@H](CC(C)C)C(=O)[C@@]1(C)CO1 = 6.91
CC(=O)NCC(=O)N1CCC[C@H]1C(=O)N[C@@H](Cc1cccc2ccccc12)C(=O)N[C@@H](CC(C)C)C(=O)[C@@]1(C)CO1 = 7.53
CC(C)C[C@H](NC(=O)[C@H](CCc1ccccc1)NC(=O)[C@@H]1CCCN1C(=O)CNC(=O)c1cnccn1)C(=O)[C@@]1(C)CO1 = 6.88
CC(=O)NCC(=O)N1CCC[C@H]1C(=O)N[C@@H](Cc1ccccc1)C(=O)N[C@@H](Cc1ccccc1)C(=O)[C@@]1(C)CO1 = 6.47
CC(C)C[C@H](NC(=O)[C@H](Cc1ccc2ccccc2c1)NC(=O)[C@@H]1CCCN1C(=O)CNC(=O)c1cnccn1)C(=O)[C@@]1(C)CO1 = 7.05
CC(=O)NCC(=O)N1CCC[C@H]1C(=O)N[C@@H](Cc1ccc2ccccc2c1)C(=O)N[C@@H](CC(C)C)C(=O)[C@@]1(C)CO1 = 7.47

Given "CC(C)C[C@H](NC(=O)[C@H](Cc1ccccc1)NC(=O)[C@@H]1CCCN1C(=O)CN1CCOCC1=O)C(=O)[C@@]1(C)CO1" , respond with its pIC50.
5.98

Specify reported pIC50 for the molecule shown: "CC(=O)NCC(=O)N1CCC[C@@]1(C)C(=O)N[C@@H](Cc1ccccc1)C(=O)N[C@@H](CC(C)C)C(=O)[C@@]1(C)CO1"
6.82
